- target-under-test: purified calf intestinal alkaline phosphatase (b.IAP) from natural sources (calf intestine)
- assay-protocol: Kinetic parameters (Km, Ki for L-Phe) of purified natural calf IAP
- experimental-setup: purified natural enzyme; read-out: K1 for L-Phe
metric-name: pKi
The meaning of pKi here: minus log10 of the concentration in molar units.

Q) # input compound: N[C@@H](Cc1ccccc1)C(=O)O [L-Phe] ; wanted: its pKi
A) 1.95

----------
- target-under-test: recombinant calf intestinal alkaline phosphatase (b.IAP), expressed in CHO cells, SEQ ID NO: 10 (Bos taurus, UniProt P19111)
- Construct: codes for a peptide of 533 amino acids in length
- Sequence (P19111 20-506 limits assumed): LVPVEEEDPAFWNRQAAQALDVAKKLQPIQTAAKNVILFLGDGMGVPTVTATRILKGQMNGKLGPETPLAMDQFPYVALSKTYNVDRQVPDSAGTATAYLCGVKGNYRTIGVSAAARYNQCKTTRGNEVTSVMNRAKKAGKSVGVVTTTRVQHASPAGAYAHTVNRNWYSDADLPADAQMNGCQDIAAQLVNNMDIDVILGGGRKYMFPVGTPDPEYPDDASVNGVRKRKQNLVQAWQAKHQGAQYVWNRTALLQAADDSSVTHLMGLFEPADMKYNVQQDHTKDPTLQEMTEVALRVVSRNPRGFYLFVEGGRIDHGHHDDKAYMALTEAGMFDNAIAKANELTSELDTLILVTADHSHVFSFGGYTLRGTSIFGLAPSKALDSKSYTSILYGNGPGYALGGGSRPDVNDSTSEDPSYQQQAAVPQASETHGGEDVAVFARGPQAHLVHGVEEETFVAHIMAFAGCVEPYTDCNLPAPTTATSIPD
- assay-protocol: Kinetic parameters (Km, Ki for L-Phe) of recombinant calf IAP
- experimental-setup: recombinant enzyme; read-out: K1 for L-Phe
- Procedure: Values for Km and Kl for L-Phe were determined for the recombinant enzyme as well as for purified protein from calf intestine as described in Hummer and Millan, supra, and Wilkinson, Biochem. J. 8:324-332 (1961), incorporated herein by reference.
metric-name: Ki (mM)
Express it in mM; write the number only.

Q) # input molecule: N[C@@H](Cc1ccccc1)C(=O)O ; wanted: its Ki
A) 15.2
